The measured values listed here are drawn from patent US20170052184A1.

targetEntity: T1, HCV Core1-169 (hepatitis C virus (HCV-1), UniProt P26664 1-169)
T1 sequence: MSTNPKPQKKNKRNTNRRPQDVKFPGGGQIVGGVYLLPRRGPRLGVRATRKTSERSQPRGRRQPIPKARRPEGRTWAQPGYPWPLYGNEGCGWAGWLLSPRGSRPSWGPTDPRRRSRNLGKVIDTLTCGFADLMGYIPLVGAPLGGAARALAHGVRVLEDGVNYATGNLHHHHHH
experimentalDetails: SPR sandwich, capture mAb C11-9
quantity: expected percent binding (%)
Numeric only. Scale: %

// known answers, use as guide
[
  {
    "binder": "HCV 208B-1024 (antibody, V domains shown) VH: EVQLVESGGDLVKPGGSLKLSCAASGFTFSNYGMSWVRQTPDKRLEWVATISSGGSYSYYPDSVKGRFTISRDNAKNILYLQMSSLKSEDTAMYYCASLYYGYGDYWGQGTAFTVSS VL: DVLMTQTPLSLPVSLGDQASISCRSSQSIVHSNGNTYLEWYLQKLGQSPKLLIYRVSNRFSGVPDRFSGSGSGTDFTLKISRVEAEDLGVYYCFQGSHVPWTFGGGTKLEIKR",
    "unitTag": "%",
    "expected percent binding": 7.1
  },
  {
    "binder": "HCV 208A-741 (antibody, V domains shown) VH: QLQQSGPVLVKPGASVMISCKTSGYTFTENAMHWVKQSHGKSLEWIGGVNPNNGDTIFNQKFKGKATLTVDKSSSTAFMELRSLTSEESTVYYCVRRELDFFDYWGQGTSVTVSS VL: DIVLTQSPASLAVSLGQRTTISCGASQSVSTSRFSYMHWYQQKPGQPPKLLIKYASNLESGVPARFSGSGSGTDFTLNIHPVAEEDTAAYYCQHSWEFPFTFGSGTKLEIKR",
    "unitTag": "%",
    "expected percent binding": 14.2
  },
  {
    "binder": "HCV 208B-395 (antibody, V domains shown) VH: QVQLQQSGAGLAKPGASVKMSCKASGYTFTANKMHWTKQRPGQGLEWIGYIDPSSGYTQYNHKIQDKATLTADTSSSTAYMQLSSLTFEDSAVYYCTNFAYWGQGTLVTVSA VL: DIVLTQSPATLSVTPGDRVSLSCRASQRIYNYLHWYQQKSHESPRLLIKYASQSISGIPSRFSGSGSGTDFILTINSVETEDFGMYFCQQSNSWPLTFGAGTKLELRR",
    "unitTag": "%",
    "expected percent binding": 5.2
  },
  {
    "binder": "HCV 208A-877 (antibody, V domains shown) VH: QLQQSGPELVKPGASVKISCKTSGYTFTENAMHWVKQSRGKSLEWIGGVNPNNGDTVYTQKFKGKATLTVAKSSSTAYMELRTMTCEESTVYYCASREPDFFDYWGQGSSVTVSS VL: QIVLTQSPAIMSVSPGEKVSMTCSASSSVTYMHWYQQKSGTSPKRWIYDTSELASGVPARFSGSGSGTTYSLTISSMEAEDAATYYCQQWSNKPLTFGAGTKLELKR",
    "unitTag": "%",
    "expected percent binding": 5.9
  },
  {
    "binder": "HCV 208A-557 (antibody, V domains shown) VH: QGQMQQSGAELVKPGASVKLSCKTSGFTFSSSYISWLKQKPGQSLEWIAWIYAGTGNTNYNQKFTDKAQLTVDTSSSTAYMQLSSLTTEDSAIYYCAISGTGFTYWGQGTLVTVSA VL: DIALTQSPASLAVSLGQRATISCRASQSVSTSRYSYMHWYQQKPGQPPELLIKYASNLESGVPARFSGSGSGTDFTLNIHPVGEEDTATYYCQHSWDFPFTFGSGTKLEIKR",
    "unitTag": "%",
    "expected percent binding": 13.3
  }
]

# input for lookup
State the recorded expected percent binding for this entry: HCV 208A-1064 (antibody, V domains shown) VH: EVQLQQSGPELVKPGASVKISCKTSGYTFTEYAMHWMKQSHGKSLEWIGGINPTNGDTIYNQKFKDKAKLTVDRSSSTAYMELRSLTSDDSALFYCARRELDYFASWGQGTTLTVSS VL: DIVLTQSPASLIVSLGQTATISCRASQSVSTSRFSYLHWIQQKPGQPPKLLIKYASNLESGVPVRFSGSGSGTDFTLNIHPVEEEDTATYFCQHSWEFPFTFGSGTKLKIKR
10.5
